- Method Notes: NCI Yeast Anticancer Drug Screen. Data for the rad50 strain (AID 155);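 further: 0% = growth of vehicle-only cultures of the same strain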
- Condition Summary: S. cerevisiae rad50 strain growth inhibition; at 50.0 µM; stronger effect = higher value
About 79,000 compounds went through this panel and 15% of them were active in at least one assay; those are over-represented in the sample as a whole.
The entries below are paired with their reported growth inhibition.
Readout: growth inhibition (%)

COc1cccc2c1C(=O)C=CC2=O
76.8
Cc1cc(=O)c2ccccc2n1CCCCCCCCCCn1c(C)cc(=O)c2ccccc21
-12.1
CCCNC(=S)NNC(N)=O
2.5
C1CCC(N=C2N(C3CCCCC3)C(=NC3CCCCC3)N2C2CCCCC2)CC1
4.7
Clc1nc(C(Cl)Cl)nc2ccccc12
9.65
Cc1ccc(SCC(CF)OCn2cc(F)c(=O)[nH]c2=O)cc1 (configuration not stated)
-7.85
COP(=O)(OC)C1c2cc(Cl)ccc2-c2c(Cl)cc(Cl)cc21 (configuration not stated)
88.8
CC(=O)Nc1cc(Br)cc2c1-c1ccc(Br)cc1C2
36.7
COc1ccc(/C=N\O[Si](C)(C)C(C)(C)C)cc1O[Si](C)(C)C(C)(C)C
31.9
CCNC(=O)c1ccccc1C(=O)c1ccccc1
-4.55
COCCOCOCCCC#C[Si](C)(C)C
8.3
C=CCc1nc2c([nH]1)c(=O)n(C)c(=O)n2C
33.5
